Molecular target: ClfB (Staphylococcus aureus)
Sequence (Q99R07 45-841): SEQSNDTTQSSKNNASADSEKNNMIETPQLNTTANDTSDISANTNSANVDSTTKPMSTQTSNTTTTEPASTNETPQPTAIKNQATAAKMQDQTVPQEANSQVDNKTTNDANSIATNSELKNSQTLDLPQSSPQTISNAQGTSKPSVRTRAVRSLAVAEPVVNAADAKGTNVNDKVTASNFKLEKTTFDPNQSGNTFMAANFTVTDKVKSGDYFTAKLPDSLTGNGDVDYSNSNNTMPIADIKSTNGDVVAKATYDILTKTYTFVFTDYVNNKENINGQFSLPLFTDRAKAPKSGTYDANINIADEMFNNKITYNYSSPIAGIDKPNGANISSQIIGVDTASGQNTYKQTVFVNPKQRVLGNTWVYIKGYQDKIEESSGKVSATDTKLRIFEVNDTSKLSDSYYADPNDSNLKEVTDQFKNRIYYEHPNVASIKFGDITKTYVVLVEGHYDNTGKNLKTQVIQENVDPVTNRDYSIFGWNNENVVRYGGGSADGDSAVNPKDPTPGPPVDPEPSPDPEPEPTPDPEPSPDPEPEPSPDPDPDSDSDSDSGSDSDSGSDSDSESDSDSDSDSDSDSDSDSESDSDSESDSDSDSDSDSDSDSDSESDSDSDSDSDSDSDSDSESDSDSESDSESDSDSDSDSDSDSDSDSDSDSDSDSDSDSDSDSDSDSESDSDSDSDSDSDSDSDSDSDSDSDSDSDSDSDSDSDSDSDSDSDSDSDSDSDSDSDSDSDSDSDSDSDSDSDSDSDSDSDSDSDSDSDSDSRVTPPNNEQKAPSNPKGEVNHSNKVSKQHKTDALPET
Details: Y2H-strain AH109, prey plasmid pGADT7
MEASURED ENDPOINT: Interaction capable with ClfB in the Y2H-system

Solved cases below.
TYRKLLEGEESRLESGMQNMSIHTKTTSGYAGGLSSAYGGLTSPGLSYSLGSSFGSGAGSSSFSRTSSSRAVVVKKIETRDGKLVSESSDVLPK [Frag 1]	Yes
YSLGSSFGSGAGSSSFSRTSSSRAVVVKKIETRDGKLVSESSDVLPK [Frag 2-CDS]	Yes
QELMNVKLALDIEIATYRKLLEGEESRLESGMQNMSIHTKTTSGYAGGLSSAYGGLTSPGLSYSLGSSFGSGAGSSSFSRTSSSRAVVVKKIETRDGKLVSESSDVLPK [Clone 10.1]	Yes
RAVVVKKIETRDGKLVSESSDVLPK [Frag 3]	No

Query: // Interaction capable with ClfB in the Y2H-system lookup, key: YSLGSSFGSGAGSSSFSRTSSSRAVVVK [Frag 2-binding domain]
Reply: Yes

Query: Another: YSLGSSFGSGAGSSSFSRTSSSRAVVVKKIETRDGKLVSESSDVLPK [Frag 2]
Reply: Yes
